List of β-Arrestin EC50 values.
# assay.system: chemokine receptor CXCR7 (UniProt P25106 1-362, limits assumed)
# Sequence (P25106 whole entry): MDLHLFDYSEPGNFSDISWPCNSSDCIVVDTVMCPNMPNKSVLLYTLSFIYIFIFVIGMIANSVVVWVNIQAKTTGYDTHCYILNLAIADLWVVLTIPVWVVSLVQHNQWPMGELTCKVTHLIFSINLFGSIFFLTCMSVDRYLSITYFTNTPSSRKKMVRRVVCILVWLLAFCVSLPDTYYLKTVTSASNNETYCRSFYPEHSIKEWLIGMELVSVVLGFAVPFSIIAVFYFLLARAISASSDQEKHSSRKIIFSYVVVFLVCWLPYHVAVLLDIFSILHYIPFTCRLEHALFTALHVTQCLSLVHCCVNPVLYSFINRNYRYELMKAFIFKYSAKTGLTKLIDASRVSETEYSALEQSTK
# assay: cell-based or functional assay
Square brackets hold non-standard residues; d marks the D form. dPro(cis-4-NH2) = N[C@H]1CN[C@@H](C(=O)O)C1; dCit = NC(=O)NCCC[C@@H](N)C(=O)O; Tic = O=C(O)[C@@H]1Cc2ccccc2CN1; dHyp = O=C(O)[C@H]1C[C@H](O)CN1; dOrn = NCCC[C@@H](N)C(=O)O; Orn = NCCC[C@H](N)C(=O)O
Please give a number only; it is taken to be in nM.

Illustrative cases are given below, each with its answer.
cyclo(I[dOrn]RW[dP]T) (SMILES CC[C@H](C)[C@@H]1NC(=O)[C@H]([C@@H](C)O)NC(=O)[C@H]2CCCN2C(=O)[C@H](Cc2c[nH]c3ccccc23)NC(=O)[C@H](CCCNC(=N)N)NC(=O)[C@@H](CCCN)NC1=O) [cyclo(-Ile-^DOrn-Arg-Trp-^DPro-Thr-)] | 23.3
cyclo(I[dR]RW[dHyp]T) (not fully specified) [cyclo(-Ile-^DArg-Arg-Trp-^DPro((4S)OH)-Thr-)] | 632

Which β-Arrestin EC50 is listed for cyclo(I[dCit]RW[dP]T) (SMILES CC[C@H](C)[C@@H]1NC(=O)[C@H]([C@@H](C)O)NC(=O)[C@H]2CCCN2C(=O)[C@H](Cc2c[nH]c3ccccc23)NC(=O)[C@H](CCCNC(=N)N)NC(=O)[C@@H](CCCNC(N)=O)NC1=O) [cyclo(-Ile-^DCit-Arg-Trp-^DPro-Thr-)] ?
472

Which β-Arrestin EC50 is listed for cyclo(W[dF]W[Orn][dPro(cis-4-NH2)][Tic]) (SMILES NCCC[C@@H]1NC(=O)[C@H](Cc2c[nH]c3ccccc23)NC(=O)[C@@H](Cc2ccccc2)NC(=O)[C@H](Cc2c[nH]c3ccccc23)NC(=O)[C@@H]2Cc3ccccc3CN2C(=O)[C@H]2C[C@@H](N)CN2C1=O) [cyclo(-Trp-^DPhe-Trp-Orn-^DPro((4R)NH2)-Tic-)] ?
26.1
